test system: EB-3; test: cells; format: functional, cell-based, Homo sapiens; details: Homo sapiens, EB-3;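 also: human EB-3 cells, growth inhibition read out via a cell viability assay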
Description: SANGER: Inhibition of human EB-3 cell growth in a cell viability assay.
Quantity: pIC50
Hey, just a heads up that pIC50 is the negative log base 10 of the concentration in molar.

INSERT INTO results (mol, numeric_result) VALUES
  ('OCCCNc1cc(-c2ccnc(Nc3cccc(Cl)c3)n2)ccn1', 7.19);

Dear colleague, please send me the reported pIC50 for "COc1cccc2c1C(=O)c1c(O)c3c(c(O)c1C2=O)C[C@@](O)(C(=O)CO)C[C@@H]3O[C@H]1C[C@H](N)[C@H](O)[C@H](C)O1" when you can.
6.11

====

test system: NCI-H226; assay: cells; type: functional, cell-based, Homo sapiens; conditions: Homo sapiens, NCI-H226;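 also: cell viability read-out used to gauge growth inhibition of the cells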
Description: SANGER: Inhibition of human NCI-H226 cell growth in a cell viability assay.
// IC50 lookup, one value per entry
# number only, unit nM dropped from output

Sample records with IC50:
INSERT INTO assay_data (compound, numeric_result) VALUES
  ('O=C(O)c1ccc(-c2c[nH]c3ncc(-c4ccccc4)cc23)cc1C1CCCC1 [GSK-650394]', 15600),
  ('N#Cc1c(O)c2c(-c3ccc(-c4ccccc4O)cc3)csc2[nH]c1=O', 407),
  ('Cc1cc([N+](=O)[O-])ccc1NS(=O)(=O)c1cc(Cl)ccc1Cl', 12300),
  ('COc1cccc2c1C(=O)c1c(O)c3c(c(O)c1C2=O)C[C@@](O)(C(=O)CO)C[C@@H]3O[C@H]1C[C@H](N)[C@H](O)[C@H](C)O1 [DOXORUBICIN]', 417);

Now look at this one.
Dear colleague, please send me the reported IC50 for Nc1ccn([C@@H]2O[C@H](CO)[C@@H](O)C2(F)F)c(=O)n1 [GEMCITABINE] when you can.
317
